Target: Cytochrome P450 1A2 (Homo sapiens)
Assay: Cytochrome panel assay with activity outcomes; note: % is set by controls: 0 for no effect and ±100 for the full control effect
Conditions: recombinant CYP, pro-luciferin dealkylation, luminescence, p450-cyp1a2; series mostly up to 57.1 µM
About 5,700 (36%) of roughly 16,000 compounds were called active. Roughly 24% stayed inconclusive and do not appear here. This is one part of the list.
Measurement kind: activity, negative = inhibition

Below, each entry is followed by its recorded activity, negative = inhibition result.
- Structure smiles: "CO[C@@H]1/C=C\\O[C@]2(C)Oc3c(C)c(O)c4c(O)c(cc(O)c4c3C2=O)NC(=O)/C(C)=C\\C=C/[C@H](C)[C@@H](O)[C@H](C)[C@H](O)[C@H](C)[C@H](OC(C)=O)[C@@H]1C"
  activity, negative = inhibition: "-9.97% [at 11.4 µM] (inactive)"
- Structure smiles: "CCN1C(=O)[C@H]2[C@@H]3[C@H](O)C=CC(=O)[C@H]3CC[C@H]2C1=O"
  activity, negative = inhibition: "-16.7% [at 11.4 µM] (inactive)"
- Structure smiles: "Nc1nc(N)c2nn(-c3ccc(C(=O)O)cc3)nc2n1"
  activity, negative = inhibition: "-13.4% [at 2.29 µM] (inactive)"
- Structure smiles: "O[C@@H](c1cc([C@@]23C[C@H]4CC[C@@H]2C[C@H](C4)C3)nc2c(Cl)cc(Cl)cc12)[C@@H]1CCCCN1"
  activity, negative = inhibition: "-10.5% [at 2.29 µM] (inactive)"
- Structure smiles: "Cc1ccc(S(=O)(=O)O[C@H]2C[C@@H](C(C)(C)C)CC[C@@H]2c2ccccc2)cc1"
  activity, negative = inhibition: "-22.8% [at 2.29 µM] (inactive)"
- Structure smiles: "N[C@@](CC(=O)O)(Cc1ccccc1)C(=O)O"
  activity, negative = inhibition: "-13.4% [at 2.29 µM] (inactive)"
- Structure smiles: "C/C(CCN1CCCCc2nc(C)c(C)cc21)=N\\O[C@@H](C)c1cc(-c2c(C)cc(C)cc2C)no1"
  activity, negative = inhibition: "2.23% [at 11.4 µM] (inactive)"
- Structure smiles: "C[N+]1(NCC[N@@+]2(C)CCc3ccccc3C2)CCCCC1"
  activity, negative = inhibition: "-12.7% [at 11.4 µM] (inactive)"

Ask | Tell me measured activity, negative = inhibition for O=C(O)CC[C@]1(C(=O)O)CCC(=O)c2ccccc21 please.
Reply | -9.13% [at 11.4 µM] (inactive)
